Test: NCI Yeast Anticancer Drug Screen. Data for the rad50 strain (AID 155);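 further: 0% = growth of vehicle-only cultures of the same strain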
Conditions: S. cerevisiae rad50 strain growth inhibition; at 100.0 µM; stronger effect = higher value
The panel holds about 79,000 compounds, 15% with a hit somewhere; the sample as a whole holds those more often.
Test Readout: growth inhibition (%)
// units = %; emit number, no label

Recorded results for 4 molecules are shown here.
BrC/C=C/C[P+](c1ccccc1)(c1ccccc1)c1ccccc1 = 98
O=S(=O)(CCC[C@H]1[C@@H](CCOCc2ccccc2)C2CCCN1O2)c1ccccc1 (stereo not given in full) = 22
O=[N+]([O-])c1ccc2nnnn2c1 = 21
CC(=O)O/N=C/c1c2ccccc2cc2ccccc12 = 62

We next turn to a different molecule, shown below.
According to the records, this molecule `N=c1oc2ccccc2cc1-c1nc2ccccc2[nH]1` displays growth inhibition of 88

Value source: PubChem BioAssay (NCI)
